Tested on: SK-OV-3 ovarian
Assay: NCI-60 one-dose screen, 48 h (100 = growth as untreated, 0 = no growth, -100 = all killed)
Details: 10 µM unless noted
This is part of a sample that, as a whole, favours compounds with a hit. Of some 83,000 tested, about 20% had one in any assay.
measured attribute: growth (%)
Supply the numeric figure in %, leaving out any unit text.

Reference set (2 entries):
## Task Check the records and state growth for C=C(C)[C@@H]1CC[C@]2(C(=O)O)CC[C@]3(C)[C@H](CC[C@@H]4[C@@]5(C)C/C(=C/c6cccc(I)c6)C(=O)C(C)(C)[C@@H]5CC[C@]43C)[C@@H]12
## Result 24.2

## Task Check the records and state growth for Fc1ccc2[nH]cc(-c3nc(-c4c[nH]c5ncccc45)cs3)c2c1
## Result 58.9

***
## Task Check the records and state growth for N#C/C(=C\c1ccc(-c2cccc(C(F)(F)F)c2)o1)c1nc(-c2ccco2)cs1
## Result 112

----------
Tested on: HCT-15 colon
Assay: NCI-60 one-dose screen, 48 h (100 = growth as untreated, 0 = no growth, -100 = all killed)
Conditions: 10 µM unless noted
The panel holds about 83,000 compounds, 20% with a hit somewhere; the sample as a whole holds those more often.
measured attribute: growth (%)
Supply the numeric figure in %, leaving out any unit text.

Reference set (2 entries):
## Task Check the records and state growth for Cn1c(=O)c2c(nc(N3CCCC3)n2C)n(C)c1=O
## Result 103

## Task Check the records and state growth for CCc1ccc(-c2ccc(Nc3ccccc3)nn2)cc1S(N)(=O)=O
## Result 65.3

Now look at this one.
## Task Check the records and state growth for Nc1c2c(nc3ccc(Cl)cc13)CC(c1ccccc1)CC2=O (stereo not drawn)
## Result 16.7

----------
Tested on: COLO 205 colon
Experiment: NCI-60 one-dose screen, 48 h (100 = growth as untreated, 0 = no growth, -100 = all killed)
Conditions: 10 µM unless noted
About 83,000 compounds went through this panel and 20% of them were active in at least one assay; those are over-represented in the sample as a whole.
measured attribute: growth (%)
Supply the numeric figure in %, leaving out any unit text.

## Task Check the records and state growth for CC(=O)OC[C@]12CC[C@@H](/C(C)=N/O)[C@@H]1[C@H]1CC[C@@H]3[C@@]4(C)CCCNC(C)(C)[C@@H]4CC[C@@]3(C)[C@]1(C)CC2
## Result 75.8

## Task Check the records and state growth for CCN1CCN(C(=O)[C@]23CCC(C)(C)C[C@@H]2C2=CC[C@@H]4[C@@]5(C)C/C(=C/c6ccncc6)C(=O)C(C)(C)[C@@H]5CC[C@@]4(C)[C@]2(C)CC3)CC1
## Result -15.3

## Task Check the records and state growth for Cc1[c-]onc1C.Cc1[c-]onc1C.[Ag].[Ag].[NH-]S(=O)(=O)c1ccc(N=Nc2cc(N=Nc3ccc(S([NH-])(=O)=O)cc3)c3c(NC(=O)C(Cl)Cl)cccc3c2OC(=O)C(Cl)Cl)cc1
## Result -46.9

## Task Check the records and state growth for CN1CCN(c2ccc3nc(-c4[nH]ncc4Nc4ncnc5[nH]ccc45)[nH]c3c2)CC1
## Result -59.8

## Task Check the records and state growth for C=C(C)[C@@H]1CC[C@]2(C(=O)N3CCCNCC3)CC[C@]3(C)[C@H](CC[C@@H]4[C@@]5(C)CCC(=O)C(C)(C)[C@@H]5CC[C@]43C)[C@@H]12
## Result 101

***
## Task Check the records and state growth for CC(=O)c1c(C)[nH]c(-c2nc3ccc(N4CCN(C)CC4)cc3[nH]2)c1-c1ccc2c(c1)OCCO2
## Result 12.7

## Task Check the records and state growth for COc1ccc(-c2nc3ccccn3c2-c2nc3ccc(Cl)cc3[nH]2)cc1
## Result 110

## Task Check the records and state growth for COc1ccc2c(c1)c1nc3cc(C)c(C)cc3nc1n2CCN(C)C
## Result -23.8

----------
Below, each entry is listed alongside its reported growth.
System: RXF 393 renal
Assay: NCI-60 one-dose screen, 48 h (100 = growth as untreated, 0 = no growth, -100 = all killed)
Details: 10 µM unless noted
The panel holds about 83,000 compounds, 20% with a hit somewhere; the sample as a whole holds those more often.
Supply the numeric figure in %, leaving out any unit text.

Reference set (3 entries):
## Task Provide RXF 393 renal growth reading for COc1ccc(O)c(-c2cc(-c3ccc(Cl)cc3)c(C#N)c(=O)[nH]2)c1 .
## Result 84.5

## Task Provide RXF 393 renal growth reading for C#CCn1c2c(c3ccccc31)C[C@]1(C)[C@H]3CC[C@@H]4[C@@H]5C(=CCC[C@H]5C(=C)C)CC[C@@]4(C)[C@]3(C)CC[C@H]1C2(C)C .
## Result 128

## Task Provide RXF 393 renal growth reading for O=P(O)(c1ccccc1)c1ccccc1I .
## Result 102

Now look at this one.
## Task Provide RXF 393 renal growth reading for COc1ccc(/C=C/C(=O)NCCO)cc1 .
## Result 106

----------
Test system: SK-MEL-28 melanoma
Assay: NCI-60 one-dose screen, 48 h (100 = growth as untreated, 0 = no growth, -100 = all killed)
Conditions: 10 µM unless noted
The panel holds about 83,000 compounds, 20% with a hit somewhere; the sample as a whole holds those more often.
measured attribute: growth (%)
Supply the numeric figure in %, leaving out any unit text.

Reference set (3 entries):
## Task Check the records and state growth for COC(=O)[C@@H]1[C@H]2C[C@H]3c4[nH]c5cc(OC)ccc5c4CCN3C[C@@H]2C[C@H](OC(=O)/C=C/c2ccnc(OC)c2)[C@H]1OC
## Result 99.2

## Task Check the records and state growth for CCN1CCN(C(=O)[C@]23CCC(C)(C)C[C@H]2C2=CC[C@@H]4[C@@]5(C)CC/C(=N/O)C(C)(C)[C@@H]5CC[C@@]4(C)[C@]2(C)CC3)CC1
## Result 73.2

## Task Check the records and state growth for CC(C)=CCC/C(C)=C/CC/C(C)=C/CC/C(C)=C/CSC[C@H](NC(=O)CCCCCN1CCN(C)CC1)C(=O)NC1CCCCC1
## Result 5.53

Now look at this one.
## Task Check the records and state growth for Cc1cccc(C)c1NCc1nc(-c2ccccc2)n[nH]1
## Result 96.8

----------
Tested on: SF-295 CNS
Test: NCI-60 one-dose screen, 48 h
Conditions: 10 µM unless noted
The panel holds about 83,000 compounds, 20% with a hit somewhere; the sample as a whole holds those more often. Calls of active or inactive are those of the source. How the source made its calls: active means growth percent below 10; inactive means the rest.
Reply using exactly one outcome from active, inactive

# example entries with known answers
## Task Recorded test call requested for COc1cc2nc(Cl)nc(Nc3cccc(C(=O)/C=C/c4ccc(Cl)cc4)c3)c2cc1OC
## Result inactive

## Task Recorded test call requested for CCCCC[C@H]1CC=C2C(=O)C=C[C@@H]2CC=CCCCC(=O)O[C@@H](CCCCC)CC=C2C(=O)C=C[C@@H]2CC=CCCCC(=O)O[C@@H](CCCCC)CC=C2C(=O)C=C[C@@H]2CC=CCCCC(=O)O1
## Result active

## Task Recorded test call requested for CC(=O)NC1=C(C#N)C(c2ccccc2Cl)c2c(ccc3ccccc23)O1 (stereo unspecified)
## Result inactive

***
## Task Recorded test call requested for CCN1CCN(C(=O)[C@]23CCC(C)(C)C[C@@H]2C2=CC[C@@H]4[C@@]5(C)C/C(=C/c6cccnc6)C(=O)C(C)(C)[C@@H]5CC[C@@]4(C)[C@]2(C)CC3)CC1
## Result inactive

## Task Recorded test call requested for Cc1ccc(C)c2c1CCC2C(C)C (stereo unspecified)
## Result inactive

## Task Recorded test call requested for CCc1cccc(CC)c1NC(=O)c1sc2nc3c(cc2c1N)CCCC3
## Result inactive

----------
Tested on: MDA-MB-231 breast
Test: NCI-60 one-dose screen, 48 h
Conditions: 10 µM unless noted
About 83,000 compounds went through this panel and 20% of them were active in at least one assay; those are over-represented in the sample as a whole. Activity calls are given as the source filed them. How the source made its calls: active means growth percent below 10; inactive means the rest.
Reply using exactly one outcome from active, inactive

# example entries with known answers
## Task Recorded test call requested for COc1cc2ncnc(Nc3ccc(Oc4ccnc(C)c4)c(C)c3)c2cc1NC(=O)CC1CCSS1 (configuration not stated)
## Result active

## Task Recorded test call requested for Clc1cc(Cl)cc(Nc2ccc3c(OCCCN4CCOCC4)cccc3n2)c1
## Result active

***
## Task Recorded test call requested for CC(=O)OCCCCCCn1c2ccccc2c2c3c(c4c5ccccc5n(C)c4c21)C(=O)N(O)C3=O
## Result inactive

## Task Recorded test call requested for O=c1[nH]c(=S)[nH]c2nc[nH]c12
## Result inactive

## Task Recorded test call requested for Cc1ccc(-c2nc3ccc(Cl)cc3c(=O)n2N2C(=O)CSC2c2ccccc2Cl)cc1 (configuration not stated)
## Result inactive

## Task Recorded test call requested for CCOC(=O)C1OC1(c1ccccc1)c1ccccc1 (configuration not stated)
## Result inactive

## Task Recorded test call requested for COc1cc(-c2nc(-c3ccccc3)c(-c3ccccc3)[nH]2)cc(OC)c1O
## Result active

Each recorded value in this set is attributed to PubChem BioAssay (NCI).
